Experimental System: Recombinant Btk (Homo sapiens (Human))
Assay Details: BTK kinase assay (TR-FRET)
Conditions Used: read-out: IC50 (nM) Btk; 1 hour pre-incubation, ATP at Km
Counter-ions that a name gives are not always drawn.
Endpoint Name: IC50 (nM)

>  <Compound>
C=CC(=O)Nc1ccccc1C1CCNc2c(C(N)=O)c(-c3ccccc3)nn21 (stereo not shown) [Compound 150]

>  <Endpoint Name>
IC50

>  <Test Value>
4.7

$$$$
>  <Compound>
C=CC(=O)N1CC[C@@H]2C(CNc3c(C(N)=O)c(-c4ccc(Oc5ccccc5)cc4)nn32)C1 (single isomer, unassigned) [Compound 30a]

>  <Endpoint Name>
IC50

>  <Test Value>
0.66

$$$$
>  <Compound>
CN(C)CCC(=O)N1CCc2[nH]c3c(C(N)=O)c(-c4ccc(Oc5ccccc5)cc4)nn3c2C1 [Compound 57, trifluoroacetate]

>  <Endpoint Name>
IC50

>  <Test Value>
37

$$$$
>  <Compound>
NC(=O)c1c(-c2ccc(Oc3ccccc3)cc2)nn2c1NCC[C@H]2C1CCN(C(=O)C#CCN2CCCC2)CC1 [Compound 187]

>  <Endpoint Name>
IC50

>  <Test Value>
2.1

$$$$
>  <Compound>
C=CC(=O)N1CC(C2CCNc3c(C(N)=O)c(-c4ccc(OCc5ccccc5)cc4)nn32)C1 (stereo not shown) [Compound 104]

>  <Endpoint Name>
IC50

>  <Test Value>
2.6

$$$$
>  <Compound>
CCCC#CC(=O)N1CCC([C@@H]2CCNc3c(C(N)=O)c(-c4ccc(Oc5ccccc5)cc4)nn32)CC1 [Compound 193]

>  <Endpoint Name>
IC50

>  <Test Value>
3.9

$$$$
>  <Compound>
NC(=O)c1c(-c2ccc(Oc3ccccc3)cc2)nn2c1NCC[C@H]2C1CCN(C(=O)CCCl)CC1 [Compound 177]

>  <Endpoint Name>
IC50

>  <Test Value>
5.7

$$$$

###

Experimental System: Recombinant Btk (Homo sapiens (Human), UniProt Q06187)
Sequence (Q06187 whole entry): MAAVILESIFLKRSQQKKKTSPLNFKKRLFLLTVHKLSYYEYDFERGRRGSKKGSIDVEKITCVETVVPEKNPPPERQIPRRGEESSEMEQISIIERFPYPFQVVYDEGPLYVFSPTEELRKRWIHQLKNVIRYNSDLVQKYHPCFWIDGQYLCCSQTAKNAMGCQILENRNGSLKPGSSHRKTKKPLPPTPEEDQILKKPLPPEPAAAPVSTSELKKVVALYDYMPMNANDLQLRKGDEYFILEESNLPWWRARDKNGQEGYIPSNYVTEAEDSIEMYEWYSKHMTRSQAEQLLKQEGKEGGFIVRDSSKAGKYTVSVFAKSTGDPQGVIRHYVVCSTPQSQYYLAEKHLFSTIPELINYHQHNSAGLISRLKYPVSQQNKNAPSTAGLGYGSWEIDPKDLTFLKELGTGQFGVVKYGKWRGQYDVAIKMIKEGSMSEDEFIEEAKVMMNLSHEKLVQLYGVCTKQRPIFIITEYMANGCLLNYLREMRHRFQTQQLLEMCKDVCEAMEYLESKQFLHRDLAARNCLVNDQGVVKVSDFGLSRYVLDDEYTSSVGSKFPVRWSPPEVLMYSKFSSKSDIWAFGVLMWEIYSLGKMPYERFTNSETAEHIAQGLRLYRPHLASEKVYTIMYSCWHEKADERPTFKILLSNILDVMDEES
Assay Details: BTK kinase assay (TR-FRET)
Conditions Used: read-out: IC50 (nM) Btk; 1 hour pre-incubation, ATP at Km
Structures can show the parent of a compound that is named as a salt.
yes if IC50 is below 20 nM. no if not; exact matches included in no.

>  <Compound>
CN(C)C/C=C/C(=O)N1CCc2[nH]c3c(C(N)=O)c(-c4ccc(Oc5ccccc5)cc4)nn3c2CC1

>  <Class Label>
yes

$$$$
>  <Compound>
C=CC(=O)NCC1(C)CCNc2c(C(N)=O)c(-c3ccc(Oc4ccccc4)cc3)nn21 (stereo not drawn)

>  <Class Label>
yes

$$$$
>  <Compound>
NC(=O)c1c(-c2ccc(Oc3ccccc3)cc2)nn2c1NC[C@H]1CNC[C@H]12 (relative stereo)

>  <Class Label>
no

$$$$
>  <Compound>
NC(=O)c1c(-c2ccc(Oc3ccccc3)cc2)nn2c3c([nH]c12)CCNC3 [Compound 51, trifluoroacetate]

>  <Class Label>
no

$$$$
>  <Compound>
CN(C)C/C=C/C(=O)N1CCCc2[nH]c3c(C(N)=O)c(-c4ccc(Oc5ccccc5)cc4)nn3c2C1

>  <Class Label>
yes

$$$$
>  <Compound>
C=CC(=O)Nc1ccccc1C1CCNc2c(C(N)=O)c(-c3ccc(C(F)(F)F)c(Cl)c3)nn21 (stereo not drawn)

>  <Class Label>
yes

$$$$
>  <Compound>
C=CC(=O)N(C)c1ccccc1C1CCNc2c(C(N)=O)c(-c3ccc(Oc4ccc(F)cc4)cc3)nn21 (stereo not drawn)

>  <Class Label>
yes

$$$$
>  <Compound>
CC#CC(=O)NCC1CCNc2c(C(N)=O)c(-c3ccc(Oc4ccc(F)cc4F)cc3)nn21 (stereo not drawn)

>  <Class Label>
no

$$$$
>  <Compound>
N#CCC(=O)N1CCC([C@@H]2CCNc3c(C(N)=O)c(-c4ccc(Oc5ccccc5)cc4)nn32)CC1

>  <Class Label>
no

$$$$
>  <Compound>
C=CC(=O)N1CC(C2CCNc3c(C(N)=O)c(-c4ccc(Oc5cccc(Cl)c5)cc4)nn32)C1 (stereo not drawn)

>  <Class Label>
yes

$$$$
>  <Compound>
C=CC(=O)Nc1ccc2c(c1)c(=O)[nH]c1c(C(N)=O)c(-c3ccc(Oc4ccccc4)cc3)nn12

>  <Class Label>
no

$$$$
>  <Compound>
C=CC(=O)Nc1ccccc1C1CCNc2c(C(N)=O)c(-c3ccc(Cl)c(C(F)(F)F)c3)nn21 (stereo not drawn)

>  <Class Label>
yes

$$$$
>  <Compound>
C=CC(=O)NC1CNc2c(C(N)=O)c(-c3ccc(Oc4ccccc4)cc3)nn2C1 (stereo not drawn)

>  <Class Label>
no

$$$$
>  <Compound>
C=CC(=O)N1CC(C2(C)CCNc3c(C(N)=O)c(-c4ccc(Oc5ccccc5)cc4)nn32)C1 (stereo not drawn)

>  <Class Label>
yes

$$$$
>  <Compound>
NC(=O)c1c(-c2ccc(Oc3ccccc3)cc2)nn2c1NCC21CNC1

>  <Class Label>
no

$$$$
>  <Compound>
C=CC(=O)NCC1CCNc2c(C(N)=O)c(-c3ccc(OCc4ccccc4)c(OC)c3)nn21 (stereo not drawn)

>  <Class Label>
no

$$$$
>  <Compound>
C=CC(=O)Nc1ccccc1C1CCNc2c(C(N)=O)c(-c3ccc(OCc4ccccn4)c(Cl)c3)nn21 (stereo not drawn)

>  <Class Label>
yes

$$$$
>  <Compound>
NC(=O)c1c(-c2ccc(Oc3ccccc3)cc2)nn2c1NCCC2C1CCN(C(=O)/C=C/CN2CCCCC2)CC1 (stereo not drawn)

>  <Class Label>
yes

$$$$
>  <Compound>
NC(=O)c1c(-c2ccc(F)c(Cl)c2)nn2c1NCCC2c1ccccc1NC(=O)/C=C/CN1CCCCC1 (stereo not drawn)

>  <Class Label>
yes

$$$$
>  <Compound>
C=CC(=O)N1CCC2(CC1)C(=O)Nc1c(C(N)=O)c(-c3ccc(Oc4ccccc4)cc3)nn12

>  <Class Label>
no

$$$$
>  <Compound>
NCC1CCNc2c(C(N)=O)c(-c3cnn(Cc4ccccc4)c3)nn21 (stereo not drawn)

>  <Class Label>
no

$$$$
>  <Compound>
C=CC(=O)N1CCC(c2cc(=O)[nH]c3c(C(N)=O)c(-c4ccc(Oc5ccccc5)cc4)nn23)CC1

>  <Class Label>
no

$$$$
>  <Compound>
C=CC(=O)N1CC(C2CCNc3c(C(N)=O)c(-c4ccc(Oc5ccccc5)c(OC)c4)nn32)C1 (stereo not drawn) [Compound 140, formate]

>  <Class Label>
no

$$$$
>  <Compound>
CN(C)CC#CC(=O)N1CCC([C@@H]2CCNc3c(C(N)=O)c(-c4ccc(Oc5ccccc5)cc4)nn32)CC1

>  <Class Label>
yes

$$$$
>  <Compound>
NC(=O)c1c(-c2ccc(Oc3ccccc3)cc2)nn2c1NCCC2C1CCNCC1 (stereo not drawn) [Compound 26, trifluoroacetate]

>  <Class Label>
no

$$$$
>  <Compound>
CC(C)(C)OC(=O)N1CCC(C2CCNc3c(C(N)=O)c(-c4ccc(Oc5ccccc5)cc4)nn32)CC1 (stereo not drawn)

>  <Class Label>
no

$$$$
>  <Compound>
NC(=O)c1c(-c2ccc(Oc3ccccc3)cc2)nn2c1NCCC2c1ccc(N)cc1 (stereo not drawn)

>  <Class Label>
no

$$$$
>  <Compound>
C=CC(=O)N1CC(C2CCNc3c(C(N)=O)c(-c4ccc(Oc5ccccc5)c(Cl)c4)nn32)C1 (stereo not drawn)

>  <Class Label>
yes

$$$$
>  <Compound>
C=CC(=O)Nc1ccccc1C1CCNc2c(C(N)=O)c(-c3cccc(OC)c3)nn21 (stereo not drawn)

>  <Class Label>
yes

$$$$
>  <Compound>
NC(=O)c1c(-c2ccc(Oc3ccccc3)cc2)nn2c3c([nH]c12)CCN(C(=O)CCCl)C3

>  <Class Label>
yes

$$$$

###

# Lookup of reported IC50 keyed by entry
Experimental System: Recombinant Btk (Homo sapiens (Human), UniProt Q06187)
Assay Details: BTK kinase assay (TR-FRET)
Conditions Used: read-out: IC50 (nM) Btk; 1 hour pre-incubation, ATP at Km
Endpoint Name: IC50 (nM)

>  <Compound>
C=CC(=O)Nc1ccccc1C1CCNc2c(C(N)=O)c(-c3ccc(OC4CCOCC4)cc3)nn21 (stereo not drawn) [Compound 24]

>  <Test Value>
39

$$$$
>  <Compound>
CN(C)CCOc1cccc(C2CNc3c(C(N)=O)c(-c4ccc(Oc5ccccc5)cc4)nn3C2)c1 (stereo not drawn) [Compound 91]

>  <Test Value>
1900

$$$$
>  <Compound>
NC(=O)c1c(-c2ccc(Oc3ccccc3)cc2)nn2c1NCCC2c1cc(N)ccc1Cl (stereo not drawn) [Compound 95]

>  <Test Value>
470

$$$$

###

As shown below, each of these compounds has a reported log10(IC50) value.
Experimental System: Recombinant Btk (Homo sapiens (Human))
Assay Details: BTK kinase assay (TR-FRET)
Conditions Used: read-out: IC50 (nM) Btk; 1 hour pre-incubation, ATP at Km
Where a name gives a salt, the structure may show the parent alone.
Endpoint Name: log10(IC50) (log10 of the value in nM)

>  <Compound>
NC(=O)c1c(-c2ccc(Oc3ccccc3)cc2)nn2c1NCCC21CNC1

>  <Test Value>
2.61

$$$$
>  <Compound>
C=CC(=O)N1CCC(C2CCNc3c(C(N)=O)c(-c4ccccc4)nn32)CC1 (stereo not shown) [Compound 144, trifluoroacetate]

>  <Test Value>
2.15

$$$$
>  <Compound>
N#CC(=CC1CC1)C(=O)N1CCC([C@@H]2CCNc3c(C(N)=O)c(-c4ccc(Oc5ccccc5)cc4)nn32)CC1

>  <Test Value>
1.40

$$$$
>  <Compound>
NC(=O)c1c(-c2ccc(Oc3ccccc3)cc2)nn2c1[nH]c1cc([N+](=O)[O-])ccc12

>  <Test Value>
2.97

$$$$
>  <Compound>
C=CC(=O)N1CC(C2CCNc3c(C(N)=O)c(-c4ccc(Oc5ccc(Cl)cc5)cc4)nn32)C1 (stereo not shown)

>  <Test Value>
0.15

$$$$
>  <Compound>
C=CC(=O)Nc1ccccc1C1CCNc2c(C(N)=O)c(-c3cc(F)c(F)c(Cl)c3)nn21 (stereo not shown)

>  <Test Value>
0.46

$$$$
>  <Compound>
NC(=O)c1c(-c2ccc(Oc3ccccc3)cc2)nn2c1[nH]c1cccc(N)c12

>  <Test Value>
2.23

$$$$
>  <Compound>
C=CC(=O)N1CC(C2CCNc3c(C(N)=O)c(-c4ccc(Oc5ccccc5C#N)cc4)nn32)C1 (stereo not shown)

>  <Test Value>
-0.42

$$$$
>  <Compound>
NC(=O)c1c(-c2ccc(Oc3ccccc3)cc2)nn2c1[nH]c(=O)c1cc([N+](=O)[O-])ccc12

>  <Test Value>
3.74

$$$$
>  <Compound>
C=CC(=O)N1CCc2[nH]c3c(C(N)=O)c(-c4ccc(OCc5ccccc5)cc4)nn3c2C1

>  <Test Value>
1.30

$$$$
>  <Compound>
NC(=O)c1c(-c2ccc(Oc3ccccc3)cc2)nn2c1NCC[C@H]2C1CCN(C(=O)C#CCO)CC1

>  <Test Value>
-0.17

$$$$
>  <Compound>
C=CC(=O)Nc1ccccc1C1CCNc2c(C(N)=O)c(-c3ccc(Cl)c(OC)c3)nn21 (stereo not shown)

>  <Test Value>
-0.31

$$$$
>  <Compound>
NC(=O)c1c(-c2ccc(OCc3ccccc3)cc2)nn2c1NCCC2c1ccccc1N (stereo not shown)

>  <Test Value>
3.57

$$$$
